Target: CYP3A4 (Homo sapiens, UniProt P08684)
Construct: effects of Friedelin on CYP3A4 catalyzed reactions (testosterone 6β-hydroxylation) in pooled HLM; from tissue; host or cells: pooled human liver microsomes
Sequence (P08684 whole entry): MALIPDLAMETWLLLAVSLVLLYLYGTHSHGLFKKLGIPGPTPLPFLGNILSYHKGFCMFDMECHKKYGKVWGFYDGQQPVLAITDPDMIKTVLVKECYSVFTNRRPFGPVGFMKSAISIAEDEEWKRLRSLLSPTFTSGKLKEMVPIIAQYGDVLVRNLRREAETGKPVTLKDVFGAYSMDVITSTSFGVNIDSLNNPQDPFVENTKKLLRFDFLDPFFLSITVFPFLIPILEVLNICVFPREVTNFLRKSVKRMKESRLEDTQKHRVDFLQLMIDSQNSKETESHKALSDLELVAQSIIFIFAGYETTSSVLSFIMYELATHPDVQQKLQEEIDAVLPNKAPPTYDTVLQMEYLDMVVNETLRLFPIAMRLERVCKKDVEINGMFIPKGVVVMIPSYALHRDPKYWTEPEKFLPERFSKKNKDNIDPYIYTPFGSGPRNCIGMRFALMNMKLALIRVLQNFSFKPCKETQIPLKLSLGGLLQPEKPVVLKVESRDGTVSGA
Experiment: CYP3A4 inhibition in pooled human liver microsomes (testosterone 6β-hydroxylation)
Type: in vitro ADME
Conditions: human, pooled human liver microsomes, pH 7.4, probe testosterone (6β-hydroxylation); Friedelin 100 μM, pooled HLMs, testosterone 6β-hydroxylation; read-out: CYP3A4 activity, % of control activity
metric: activity at 100 μM (%)
A number alone suffices; assume %.

Entry C[C@H]1C(=O)CC[C@@H]2[C@]1(C)CC[C@H]1[C@@]2(C)CC[C@@]2(C)[C@@H]3CC(C)(C)CC[C@]3(C)CC[C@]12C : activity at 100 μM on CYP3A4 (Homo sapiens, UniProt P08684) = 7.5
